- assay_target: GPC3 on the surface of hepatic cancer cell lines (SK-Hep1-GPC3 transfectant, HepG2, Huh7, Hep3B, SNU398) (human) (UniProt P51654)
- test_protocol: FACS, HepG2 cells, 1 ug antibody; upper right panel (Synthetic library)
Parameter: Mean, FL2-H. Scope: all listed entries.
Hey, just send me the number, nothing else.

// known answers, use as guide
Entry clone GS014 (scFv, V domains shown) VH: EVQLLESGGGLVQPGGSLRLSCAASGFTFSNYAMSWVRQAPGKGLEWVSVISPNSGSNTYYADSVKGRFTISRDNSKNTLYLQMNSLRAEDTAVYYCARPRILRRRVDHSYSYAMDVWGQGTLVTVSS VL: QSVLTQPPSASGTPGQRVTISCTGSSSNIGNNYVSWYQQLPGTAPKLLIYSNSHRPSGVPDRFSGSKSGTSASLAISGLRSEDEADYYCGTWDYSLSGYVLGGGTKLTVLG has what Mean, FL2-H?
5.66

Entry clone GS004 (scFv, V domains shown) VH: EVQLLESGGGLVQPGGSLRLSCAVSGFTFSNYSMSWVRQAPGKGLEWVSAISPGSSNKYYADSVKGRFTISRDNSKNTLYLQMNSLRAEDTAVYYCARYRVWAHSASSSYSNAMDVWGQGTLVTVSS VL: QSVLTQPPSASGTPGQRVTISCSGSSSNIGNNDVSWYQQLPGTAPKLLIYSDSQRPSGVPDRFSGSKSGTSASLAISGLRSEDEADYYCGSWDDSLNGYVFGGGTKLTVLG has what Mean, FL2-H?
4.38

New cases:
Entry clone GS010 (scFv, V domains shown) VH: EVQLLESGGGLVQPGGSLRLSCAASGFTFSNYSMSWVRQAPGKGLEWVSVISPSSGSIYYADSVKGRFTISRDNSKNTLYLQMNSLRAEDTAVYYCARYRVRQLKHTRSYADAMDVWGQGTLVTVSS VL: QSVLTQPPSASGAPGQRVTISCSGSSSNIGSNAVSWYQQLPGTAPKLLIYANSHRPSGVPDRFSGSKSGTSASLAISGLRSEDETDYYCASWDSSLSGYVFGGGTKLTVLG has what Mean, FL2-H?
4.72
